measurement description: TRM-201-PK-102 single-dose four-period crossover pharmacokinetic study, fasted healthy subjects
Assay type: in vivo, human
measurement setup: human, plasma, oral, 20 mg, 102 study, Hispanic or Latino subjects, read-out: geometric mean Cmax

| smiles structure | Cmax / ng/mL |
| --- | --- |
| CS(=O)(=O)c1ccc(C2=C(c3ccccc3)C(=O)OC2)cc1 | 258 |

---

measurement description: TRM-201-PK-102 single-dose four-period crossover pharmacokinetic study, fasted healthy subjects
Type: in vivo, human
measurement setup: human, plasma, oral, 25 mg, 102 study, 18-40 years, read-out: arithmetic mean Cmax
quantity: Cmax

| molecule | assay result |
| --- | --- |
| CS(=O)(=O)c1ccc(C2=C(c3ccccc3)C(=O)OC2)cc1 [TRM-201] | 366 ng/mL |

Taken from patent US10945992B1.
